pIC50: −log10 of the molar value.
Several publications report pIC50 on Receptor-type tyrosine-protein kinase FLT3 (Homo sapiens); those values are gathered here.
quantity: pIC50

smiles_text | recorded_value
Cc1oncc1C(=O)Nc1ccc2cnc(-c3cc(OC4CCN(C)CC4)cc(C(F)(F)F)c3)nc2c1 | 5.44
Cc1nc2sc3c(c2c(=O)n1NC(=O)CNc1cc(C(C)(C)C)no1)CCCC3 | 4.69
COc1ccc(/C=C/c2ncc3ccc(NC(=O)c4cnoc4C)cc3n2)cc1 | 5.33
Cc1cn(-c2cc(-c3ncc4ccc(NC(=O)c5cnoc5C)cc4n3)cc(C(F)(F)F)c2)cn1 | 5.80
Cc1nc2sc3c(c2c(=O)n1NC(=O)CNc1cc(C(C)(C)C)on1)CCCC3 | 4.32
Cc1oncc1C(=O)Nc1ccc2cnc(-c3cc(N4CCOCC4)cc(C(F)(F)F)c3)nc2c1 | 5.40
CCC[C@H](C)Nc1ncc2c(C3CCN(CCF)CC3)cn([C@H]3CC[C@H](O)CC3)c2n1 | 6.00
Nn1c(Nc2ccccc2)nc2sc3c(c2c1=O)CCCC3 | 4.57
